Data provenance is PubChem BioAssay AID2060617.

In this section, each of the molecules is paired with its reported viability, T/C.
# Test system: 485368-065-R4-J2-PDC spheroids with HUVEC/MSC, viability
# Procedure Details: Anticancer human tumor 485368-065-R4-J2-PDC patient-derived pancreatic carcinoma cell line growth inhibition [CLK]
# Recorded Conditions: second compound 10 µM; first compound 1 µM; stronger effect = lower value

Molecule	Tested System	Unit Tag	viability, T/C
COc1c(OCCCN2CCOCC2)ccc2c3n(c(=NC(=O)c4cnc(N)nc4)nc12)CCN3 + CN1CCN(c2cc(C(=O)Nc3cc4cc(-c5cnn(C)c5)ccc4cn3)ccn2)CC1	485368-065-R4-J2-PDC spheroids with HUVEC/MSC, viability	%	2
CC(CO)NC(=O)c1cc(-c2ccc(Cl)cc2)nn(-c2cnn(C)c2)c1=O (stereo unspecified) + CNC(=O)c1ccc(Nc2nc(OC3CCCC3)c3c(-c4ccc5nc(C)oc5c4)c[nH]c3n2)c(OC)c1	485368-065-R4-J2-PDC spheroids with HUVEC/MSC, viability	%	66.6
COc1cccc2c1C(=O)c1c(O)c3c(c(O)c1C2=O)CC(O)(C(=O)CO)CC3OC1CC(N)C(O)C(C)O1 (stereo unspecified) + CNC(=O)c1ccc(Nc2nc(OC3CCCC3)c3c(-c4ccc5nc(C)oc5c4)c[nH]c3n2)c(OC)c1	485368-065-R4-J2-PDC spheroids with HUVEC/MSC, viability	%	7.28
CCCS(=O)(=O)Nc1ccc(F)c(C(=O)c2c[nH]c3ncc(-c4ccc(Cl)cc4)cc23)c1F + CN1CCN(c2cc(C(=O)Nc3cc4cc(-c5cnn(C)c5)ccc4cn3)ccn2)CC1	485368-065-R4-J2-PDC spheroids with HUVEC/MSC, viability	%	3.01
Nc1ccn(C2OC(CO)C(O)C2(F)F)c(=O)n1 (stereo unspecified) + CN1CCN(c2cc(C(=O)Nc3cc4cc(-c5cnn(C)c5)ccc4cn3)ccn2)CC1	485368-065-R4-J2-PDC spheroids with HUVEC/MSC, viability	%	2.61
CCN1CCN(Cc2ccc(Nc3ncc(F)c(-c4cc(F)c5nc(C)n(C(C)C)c5c4)n3)nc2)CC1 + CNC(=O)c1ccc(Nc2nc(OC3CCCC3)c3c(-c4ccc5nc(C)oc5c4)c[nH]c3n2)c(OC)c1	485368-065-R4-J2-PDC spheroids with HUVEC/MSC, viability	%	56.3
C#Cc1c(F)ccc2cc(O)cc(-c3ncc4c(N5CC6CCC(C5)N6)nc(OCC56CCCN5CC(F)C6)nc4c3F)c12 (stereo unspecified) + CNC(=O)c1ccc(Nc2nc(OC3CCCC3)c3c(-c4ccc5nc(C)oc5c4)c[nH]c3n2)c(OC)c1	485368-065-R4-J2-PDC spheroids with HUVEC/MSC, viability	%	67.7
Nc1ccccc1NC(=O)c1ccc(CNC(=O)OCc2cccnc2)cc1 + CNC(=O)c1ccc(Nc2nc(OC3CCCC3)c3c(-c4ccc5nc(C)oc5c4)c[nH]c3n2)c(OC)c1	485368-065-R4-J2-PDC spheroids with HUVEC/MSC, viability	%	73.6
O=C(c1cc(Cc2n[nH]c(=O)c3ccccc23)ccc1F)N1CCN(C(=O)C2CC2)CC1 + CN1CCN(c2cc(C(=O)Nc3cc4cc(-c5cnn(C)c5)ccc4cn3)ccn2)CC1	485368-065-R4-J2-PDC spheroids with HUVEC/MSC, viability	%	2.7
COC1C=CCC(C)C(C)S(=O)(=O)NC(=O)c2ccc3c(c2)N(CC2CCC21)CC1(CCCc2cc(Cl)ccc21)CO3 (stereo unspecified) + CN1CCN(c2cc(C(=O)Nc3cc4cc(-c5cnn(C)c5)ccc4cn3)ccn2)CC1	485368-065-R4-J2-PDC spheroids with HUVEC/MSC, viability	%	3.68
O=C(c1cc(Cc2n[nH]c(=O)c3ccccc23)ccc1F)N1CCN(C(=O)C2CC2)CC1 + CNC(=O)c1ccc(Nc2nc(OC3CCCC3)c3c(-c4ccc5nc(C)oc5c4)c[nH]c3n2)c(OC)c1	485368-065-R4-J2-PDC spheroids with HUVEC/MSC, viability	%	76.5
COc1cccc2c1C(=O)c1c(O)c3c(c(O)c1C2=O)CC(O)(C(=O)CO)CC3OC1CC(N)C(O)C(C)O1 (stereo unspecified) + CN1CCN(c2cc(C(=O)Nc3cc4cc(-c5cnn(C)c5)ccc4cn3)ccn2)CC1	485368-065-R4-J2-PDC spheroids with HUVEC/MSC, viability	%	8.69
C=CC(=O)N1CCN(c2nc(=O)n(-c3c(C)ccnc3C(C)C)c3nc(-c4c(O)cccc4F)c(F)cc23)C(C)C1 (stereo unspecified) + CN1CCN(c2cc(C(=O)Nc3cc4cc(-c5cnn(C)c5)ccc4cn3)ccn2)CC1	485368-065-R4-J2-PDC spheroids with HUVEC/MSC, viability	%	3.44
O=c1[nH]cc(F)c(=O)[nH]1 + CNC(=O)c1ccc(Nc2nc(OC3CCCC3)c3c(-c4ccc5nc(C)oc5c4)c[nH]c3n2)c(OC)c1	485368-065-R4-J2-PDC spheroids with HUVEC/MSC, viability	%	64.1
CCN1CCN(Cc2ccc(Nc3ncc(F)c(-c4cc(F)c5nc(C)n(C(C)C)c5c4)n3)nc2)CC1 + CN1CCN(c2cc(C(=O)Nc3cc4cc(-c5cnn(C)c5)ccc4cn3)ccn2)CC1	485368-065-R4-J2-PDC spheroids with HUVEC/MSC, viability	%	3.7
COc1ccc([C@@H](O)c2cc(-c3ncnc4cc(N5CCOCC5)ccc34)c(F)cc2Cl)nn1 + CNC(=O)c1ccc(Nc2nc(OC3CCCC3)c3c(-c4ccc5nc(C)oc5c4)c[nH]c3n2)c(OC)c1	485368-065-R4-J2-PDC spheroids with HUVEC/MSC, viability	%	57.5
Nc1ccn(C2OC(CO)C(O)C2(F)F)c(=O)n1 (stereo unspecified) + CNC(=O)c1ccc(Nc2nc(OC3CCCC3)c3c(-c4ccc5nc(C)oc5c4)c[nH]c3n2)c(OC)c1	485368-065-R4-J2-PDC spheroids with HUVEC/MSC, viability	%	16
Nc1ccccc1NC(=O)c1ccc(CNC(=O)OCc2cccnc2)cc1 + CN1CCN(c2cc(C(=O)Nc3cc4cc(-c5cnn(C)c5)ccc4cn3)ccn2)CC1	485368-065-R4-J2-PDC spheroids with HUVEC/MSC, viability	%	2.05
C=C(F)C(=O)N1CCN(c2nc(OCC3CCCN3C)nc3c2CCN(c2cccc4cccc(Cl)c24)C3)CC1CC#N (stereo unspecified) + CNC(=O)c1ccc(Nc2nc(OC3CCCC3)c3c(-c4ccc5nc(C)oc5c4)c[nH]c3n2)c(OC)c1	485368-065-R4-J2-PDC spheroids with HUVEC/MSC, viability	%	80
CCc1c2c(nc3ccc(O)cc13)-c1cc3c(c(=O)n1C2)COC(=O)[C@]3(O)CC + CN1CCN(c2cc(C(=O)Nc3cc4cc(-c5cnn(C)c5)ccc4cn3)ccn2)CC1	485368-065-R4-J2-PDC spheroids with HUVEC/MSC, viability	%	14
COc1ccc([C@@H](O)c2cc(-c3ncnc4cc(N5CCOCC5)ccc34)c(F)cc2Cl)nn1 + CN1CCN(c2cc(C(=O)Nc3cc4cc(-c5cnn(C)c5)ccc4cn3)ccn2)CC1	485368-065-R4-J2-PDC spheroids with HUVEC/MSC, viability	%	1.29

---

# Tested on: 485368-065-R4-J2-PDC spheroids with HUVEC/MSC, viability
# Procedure Details: Anticancer human tumor 485368-065-R4-J2-PDC cell line growth inhibition [CLK];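 further: spheroids exposed to compounds for seven days; 100% = DMSO vehicle control wells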
# Recorded Conditions: second compound 0.1 µM; first compound 0.0316 µM; stronger effect = lower value
In this section, each of the compounds is paired with its reported viability, T/C.

Compound	Unit Tag	viability, T/C
O=c1[nH]cc(F)c(=O)[nH]1 + CN1CCN(c2cc(C(=O)Nc3cc4cc(-c5cnn(C)c5)ccc4cn3)ccn2)CC1	%	106
CC1(C)CCC(CN2CCN(c3ccc(C(=O)NS(=O)(=O)c4ccc(NCC5CCOCC5)c([N+](=O)[O-])c4)c(Oc4cnc5[nH]ccc5c4)c3)CC2)=C(c2ccc(Cl)cc2)C1 + CNC(=O)c1ccc(Nc2nc(OC3CCCC3)c3c(-c4ccc5nc(C)oc5c4)c[nH]c3n2)c(OC)c1	%	98.2
Nc1ccn(C2OC(CO)C(O)C2(F)F)c(=O)n1 (configuration not stated) + CNC(=O)c1ccc(Nc2nc(OC3CCCC3)c3c(-c4ccc5nc(C)oc5c4)c[nH]c3n2)c(OC)c1	%	62.8
CCCS(=O)(=O)Nc1ccc(F)c(C(=O)c2c[nH]c3ncc(-c4ccc(Cl)cc4)cc23)c1F + CN1CCN(c2cc(C(=O)Nc3cc4cc(-c5cnn(C)c5)ccc4cn3)ccn2)CC1	%	105
CCc1c2c(nc3ccc(O)cc13)-c1cc3c(c(=O)n1C2)COC(=O)[C@]3(O)CC + CN1CCN(c2cc(C(=O)Nc3cc4cc(-c5cnn(C)c5)ccc4cn3)ccn2)CC1	%	9.62
C#Cc1c(F)ccc2cc(O)cc(-c3ncc4c(N5CC6CCC(C5)N6)nc(OCC56CCCN5CC(F)C6)nc4c3F)c12 (configuration not stated) + CN1CCN(c2cc(C(=O)Nc3cc4cc(-c5cnn(C)c5)ccc4cn3)ccn2)CC1	%	112
C=C(F)C(=O)N1CCN(c2nc(OCC3CCCN3C)nc3c2CCN(c2cccc4cccc(Cl)c24)C3)CC1CC#N (configuration not stated) + CN1CCN(c2cc(C(=O)Nc3cc4cc(-c5cnn(C)c5)ccc4cn3)ccn2)CC1	%	109
